Origin of values: patent US20100279930A1

Target Entity: human Y4 receptor (human, UniProt P50391 1-375)
Sequence (P50391 whole entry): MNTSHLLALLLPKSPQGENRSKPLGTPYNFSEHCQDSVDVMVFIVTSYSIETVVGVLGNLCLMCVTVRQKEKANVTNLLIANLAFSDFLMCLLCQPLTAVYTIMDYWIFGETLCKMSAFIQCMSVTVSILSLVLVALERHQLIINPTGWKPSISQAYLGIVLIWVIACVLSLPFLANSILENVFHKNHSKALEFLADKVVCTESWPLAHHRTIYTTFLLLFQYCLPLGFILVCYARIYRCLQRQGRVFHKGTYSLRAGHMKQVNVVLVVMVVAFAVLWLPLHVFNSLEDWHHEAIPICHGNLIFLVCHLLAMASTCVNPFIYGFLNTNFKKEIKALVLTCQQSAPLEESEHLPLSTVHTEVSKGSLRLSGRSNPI
Protocol: 125I-PP displacement
Measured Attribute: IC50 (nM)

Some binders with recorded IC50:
APLEPVYPGDNATPEELVKYYSALRRYINLLTRPRY [7111] :: 0.077
HAPLEPVYPGDDATPQQMAHYYSELRRYINMLTRPRY [7139] :: 0.137
AAPLEPFYPGDDATPQQMAHYAAELRRYINTLTRPRY [7147] :: 0.148
AAPLEPVYPGDNATPEQMAHYAAELRRYINTLTRPRY [7158] :: 0.146
APLEPVYPGDDATPQQIAHYYSELRRYINMLTRPRY [7135] :: 0.18
PAPLEPVYPGDNATPEELVKYYSALRRYINMLTRHRY [7114] :: 0.166
APLEPVYPGDNATPEEIVHYFIELRRYINMLTRPRY [7125] :: 0.1
APLEPVYPGDNATPEEINHYYSALRRYINMLTRPRY [7122] :: 0.118
PAPLEPEYPGDDATPQQMAHYAAELRRYINMLTRPRY [7150] :: 0.169
PAPLEPFYPGDDATPQQMAHYAAELRRYINMLTRPRY [7145] :: 0.165

1 = PLEPVYPGDNATPEELVKYYSALRRYINMLTRPRY [7101]
2 = PAPLEPVYPGDNATPEQMAQYAADLRRYINKLTRPRY [7220]
3 = PAPLEPVYPGDNATPEQMAHYAAELRRYINMLTRPRY [7161]
[Q] Hey, quick one: sort these by IC50, low to high? # answer = labels listed in requested order
[A] 1, 2, 3
